# subject-of-test: Ubiquitin carboxyl-terminal hydrolase 7 (Homo sapiens, UniProt Q93009)
# Sequence (Q93009 whole entry): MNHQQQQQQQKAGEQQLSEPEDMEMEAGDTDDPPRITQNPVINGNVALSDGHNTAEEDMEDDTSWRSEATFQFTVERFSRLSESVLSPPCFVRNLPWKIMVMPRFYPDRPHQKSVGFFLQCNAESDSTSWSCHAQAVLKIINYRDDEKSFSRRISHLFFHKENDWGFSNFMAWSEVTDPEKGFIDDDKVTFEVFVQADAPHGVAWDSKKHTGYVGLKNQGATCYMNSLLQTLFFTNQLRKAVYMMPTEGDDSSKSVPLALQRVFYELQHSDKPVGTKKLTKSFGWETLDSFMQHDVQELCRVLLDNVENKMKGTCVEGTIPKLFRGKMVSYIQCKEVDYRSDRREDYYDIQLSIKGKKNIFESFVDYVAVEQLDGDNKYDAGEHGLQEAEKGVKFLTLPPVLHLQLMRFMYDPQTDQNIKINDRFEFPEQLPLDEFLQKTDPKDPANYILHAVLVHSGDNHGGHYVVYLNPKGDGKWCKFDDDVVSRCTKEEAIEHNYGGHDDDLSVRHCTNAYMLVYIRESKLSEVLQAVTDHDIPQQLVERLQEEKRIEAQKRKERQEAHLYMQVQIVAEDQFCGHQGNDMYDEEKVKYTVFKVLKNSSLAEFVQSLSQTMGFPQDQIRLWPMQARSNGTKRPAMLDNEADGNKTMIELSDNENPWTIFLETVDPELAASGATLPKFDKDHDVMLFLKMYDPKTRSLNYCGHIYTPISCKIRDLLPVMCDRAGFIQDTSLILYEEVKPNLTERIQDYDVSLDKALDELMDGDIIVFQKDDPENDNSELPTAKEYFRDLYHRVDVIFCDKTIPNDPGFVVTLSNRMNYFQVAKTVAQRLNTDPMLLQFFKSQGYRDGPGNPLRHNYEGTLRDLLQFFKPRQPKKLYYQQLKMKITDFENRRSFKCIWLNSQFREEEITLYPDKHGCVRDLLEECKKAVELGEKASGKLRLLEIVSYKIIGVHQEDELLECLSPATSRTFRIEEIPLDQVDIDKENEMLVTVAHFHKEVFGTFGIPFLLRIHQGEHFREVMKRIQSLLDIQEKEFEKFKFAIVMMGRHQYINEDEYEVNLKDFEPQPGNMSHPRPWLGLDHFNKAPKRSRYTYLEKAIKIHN
# experiment-summary: Inhibition of human USP7 using Ub-AMC as substrate
Provide the reported IC50 of each item.

Look up and report measured IC50 for this entry: O=c1c2ccc(Cl)cc2ncn1CC1(O)CCN(CCCc2ccccc2)CC1 > 100 µM

Supply reported IC50 belonging to this compound: O=C(CCc1ccccc1)N1CCC(O)(Cn2cnc3cc(Cl)ccc3c2=O)C1 (centres undefined) > 100 µM

# return recorded IC50 for input O=C(Cc1ccccc1)N1CCC(O)(Cn2cnc3cc(Cl)ccc3c2=O)CC1 > 100 µM

Quick one: give measured IC50 for CCOc1nc2c(nc1C#N)C(=O)c1ccccc1-2 > 100 µM

Answer with the recorded IC50 of N#Cc1nc2c(nc1C#N)C1(OCCO1)c1ccccc1-2 only. > 100 µM

Return reported IC50. Input compound: O=C(CCc1ccccc1)N1CCC(Cn2cnc3cc(Cl)ccc3c2=O)CC1 > 100 µM

Please supply the value of reported IC50 for the item N#CC1(Cn2cnc3cc(Cl)ccc3c2=O)CCN(C(=O)CCc2ccccc2)CC1 > 100 µM

Entry CCO/C(O)=C(\C#N)c1nc2c(nc1C#N)C(=O)c1ccccc1-2 needs its IC50 filled in; supply it. > 100 µM

Write down IC50 measured for item CC(=O)N1CCC(O)(Cn2cnc3cc(Cl)ccc3c2=O)CC1 > 100 µM
